- Target: FLT3-D835Y (Homo sapiens, UniProt P36888, D835Y)
- Construct: purchased Invitrogen PV3967
- Assay Info: FLT3-D835Y biochemical kinase assay (AlphaScreen)
Property Name: IC50

# count of solved cases: 5
{"Compound": "CC1(COc2cnc3[nH]cc(-c4ccc5[nH]cnc5c4)c3c2)COC1 [P-008]", "Test Value": "1 to 10 µM"}
{"Compound": "COc1cnc2[nH]cc(-c3ccc4[nH]ncc4c3)c2c1 [P-003]", "Test Value": "1 to 10 µM"}
{"Compound": "COc1cc(-c2cnc3[nH]cc(-c4ccc5ncn(C(C)(C)C)c5c4)c3n2)cc(OC)n1 [P-194]", "Test Value": "0.0001 to 1 µM"}
{"Compound": "Cc1nc2cc(-c3c[nH]c4ncccc34)ccc2[nH]1 [P-012]", "Test Value": "1 to 10 µM"}
{"Compound": "FC(F)n1cc(-c2cnc3[nH]cc(-c4ccc5ncn(C6CCCNC6)c5c4)c3n2)cn1 (stereo not drawn) [P-257]", "Test Value": "0.0001 to 1 µM"}

Incoming: Provide only the value of recorded IC50 for COc1cc(-c2cnc3[nH]cc(-c4ccc5ncn(C6CCCNC6)c5c4)c3c2)cc(OC)n1 (stereo not drawn) [P-197]
Outgoing: 0.0001 to 1 µM

Incoming: Provide only the value of recorded IC50 for COc1cc(-c2cnc3[nH]c(C)c(-c4ccc5ncn(C)c5c4)c3c2)ccn1 [P-112]
Outgoing: 0.0001 to 1 µM

Incoming: Provide only the value of recorded IC50 for COc1cc(-c2cnc3[nH]cc(-c4ccc5ncn(C)c5c4)c3n2)cc(OC)n1 [P-157]
Outgoing: 0.0001 to 1 µM

Incoming: Provide only the value of recorded IC50 for c1cc(N2CCOCC2)ccc1-c1cnc2[nH]cc(-c3ccc4ncn(C5CCCNC5)c4c3)c2n1 (stereo not drawn) [P-101]
Outgoing: 0.0001 to 1 µM
